System: SK-MEL-28 melanoma
Assay: NCI tumour cell line growth inhibition, 48 h
Recorded TGI, one value per entry.

Before answering, review these 6 worked examples.
molecule=C/C=C/C=C/c1nc(C#N)c(N)o1 measured_parameter=TGI val="> 100 µM"
molecule=CN(C)Cc1c[nH]c2c(NCCN)c3c(c(NCCN)c12)C(=O)c1ccccc1C3=O measured_parameter=TGI val="23.3 µM"
molecule="CCOC(=O)c1ccc(N[C@@H]2c3cc4c(cc3C(C3=CC(=O)C(=O)C(OC)=C3)[C@H]3C(=O)OCC32)OCO4)cc1 (stereo not given in full)" measured_parameter=TGI val="40.5 µM"
molecule=Cc1csc(-c2cn(C)c3c2C(=O)C(N)=CC3=O)n1 measured_parameter=TGI val="> 100 µM"
molecule=O=C1C[C@H](Sc2ccccc2)C2(OCCO2)[C@@H](Sc2ccccc2)C1 measured_parameter=TGI val="10.4 µM"
molecule=O=c1cc(N=P(c2ccccc2)(c2ccccc2)c2ccccc2)n(-c2ccccc2)c(=O)n1-c1ccccc1 measured_parameter=TGI val="> 100 µM"

Looking up CC(C(=O)n1nnc2ccccc21)N(c1ccccc1)c1ccccc1 (stereo not given) , I see its TGI listed as > 100 µM

Looking up O=c1ncccn1C1C=C(CO)C(O)C1O (stereo not given) , I see its TGI listed as > 50 µM

Looking up NC(=O)c1cccc(Nc2nccc(Nc3cccc(F)c3)n2)c1 , I see its TGI listed as > 25 µM

Looking up CC1=C(C(=O)Nc2ccccc2C)C(/C=C/c2ccccc2)C(C(=O)Nc2ccccc2C)=C(C)N1 , I see its TGI listed as > 100 µM
